Target: T1, human Trop-2-His (human, UniProt P09758 27-274, limits assumed)
T1 construct: by analogy with the macaque construct it is probably the extracellular domain with a His tag; also called Trop-2-His protein
T1 sequence: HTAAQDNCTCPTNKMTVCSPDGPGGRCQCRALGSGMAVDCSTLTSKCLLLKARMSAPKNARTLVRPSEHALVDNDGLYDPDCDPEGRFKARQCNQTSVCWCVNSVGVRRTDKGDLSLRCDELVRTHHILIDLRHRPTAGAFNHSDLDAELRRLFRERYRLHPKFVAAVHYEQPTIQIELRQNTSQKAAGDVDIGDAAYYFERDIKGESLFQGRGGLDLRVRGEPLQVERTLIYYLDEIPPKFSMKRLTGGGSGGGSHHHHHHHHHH
Experiment: SPR (Biacore 8K), antibody captured, Trop-2-His as analyte
readout name: kon (M⁻¹ s⁻¹)
Give your result in M⁻¹ s⁻¹ as a bare value.

| binder | endpoint unit | endpoint value |
| --- | --- | --- |
| hz-Ab2-1.4 (antibody, human IgG1, kappa, V domains shown, Humanized antibody) VH: QVQLQESGPGLVKPSETLSLTCTVSGFSLTYYGIDWIRQPPGKGLEWIGVIWGSGNTKYNSALKSRVTISKDNSKSQVYLKLSSVTAADTAVYYCARFYEGFAYWGQGTLVTVSS VL: DIQMTQSPSSLSASVGDRVTITCKASQDINSYLSWFQQKPGKAPKTLIYRANRLVEGVPSRFSGSGSGQDYTLTISSLQPEDFATYYCLQYDEFPLTFGQGTKVEIKR | M⁻¹ s⁻¹ | 1.22e+06 |

For hz-Ab21-2.2 (antibody, human IgG1, kappa, V domains shown, Humanized antibody) VH: EVQLVESGGGLVKPGGSLRLSCAASGFTLRNYGVHWVRQAPGKGLEWVGVIWSSGTTDYNAAFISRFTISKDNSKNTLYLQMNSLKTEDTAVYYCTRDGDYDYYTMDYWGQGTLVTVSS VL: EIVLTQSPATLSLSPGERATLSCRASKSVSTSAYSYIHWYQQKPGQPPRLLIYLTSNLESGIPARFSGSGSGTDFTLTISSLEPEDFAVYYCQHSRELPYTFGQGTKVEIKR the binder record lists kon as 460000
